- CONDITION NOTES: in acetone, 323.15 K

{"columns": ["COMPOUND", "solubility (mole fraction)"],
 "data": [
  ["O=C(O)CNC(=O)OCc1ccccc1", 0.197]
]}

----------
- CONDITION NOTES: in n-butanol, 323.15 K

{"columns": ["COMPOUND", "solubility (mole fraction)"],
 "data": [
  ["O=C(O)CNC(=O)OCc1ccccc1", 0.122]
]}

----------
- CONDITION NOTES: in n-butanol, 293.15 K

{"columns": ["COMPOUND", "solubility (mole fraction)"],
 "data": [
  ["O=C(O)CNC(=O)OCc1ccccc1", 0.032]
]}
